This collection of values is drawn from paper doi:10.1101/525105v1.

Target sequence: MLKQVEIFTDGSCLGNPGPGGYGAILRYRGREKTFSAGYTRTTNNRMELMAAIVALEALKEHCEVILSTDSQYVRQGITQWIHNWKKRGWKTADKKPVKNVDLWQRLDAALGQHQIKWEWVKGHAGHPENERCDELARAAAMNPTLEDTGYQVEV
Reported Metric: IC50

{"Compound": "Cc1cc(/C=C/C#N)cc(C)c1Nc1ccnc(Nc2ccc(C#N)cc2)n1 [rilpivirine, reference compound]", "Reported Metric": "IC50", "Assay Result": "> 10 µM"}
{"Compound": "CC(C)Oc1ccc2cccnc2c1-c1cccc2ccccc12", "Reported Metric": "IC50", "Assay Result": "44.3 µM"}
{"Compound": "CC(C)Oc1ccc2cccnc2c1-c1cccc2cccnc12", "Reported Metric": "IC50", "Assay Result": "> 100 µM"}

---

biological target: HIV-1 RT (Roche colorimetric reverse transcriptase assay kit) (HIV-1 M:B_HXB2R)
pIC50: −log10 of the molar value.

{"Molecule": "CC(C)Oc1ccc2cccnc2c1-c1cccc2cccnc12 [B#57, 7-(Isopropyloxy)-8,8′-biquinolyl]", "pIC50": "< 4.00"}
{"Molecule": "Cc1cc(/C=C/C#N)cc(C)c1Nc1ccnc(Nc2ccc(C#N)cc2)n1 [rilpivirine, reference compound]", "pIC50": "~9.00"}
{"Molecule": "CC(C)Oc1ccc2cccnc2c1-c1cccc2ccccc12 [B#24]", "pIC50": "< 4.00"}

---

Measured CC50 at 48 h values are reported for all entries that follow.
experiment: in vitro; conditions: human, lc5-ric cells
Reported Metric: CC50 at 48 h (µM)

{"Compound String": "CCN(CC)OC(=O)c1ccc2ccccc2c1-c1cccc2cccnc12", "Comparison Operator": "=", "Assay Result": 71.4}
{"Compound String": "CC(C)Oc1ccc2cccnc2c1-c1cccc2cccnc12", "Comparison Operator": ">", "Assay Result": 200}
{"Compound String": "CC(C)Oc1ccc2cccnc2c1-c1cccc2ccccc12", "Comparison Operator": "=", "Assay Result": 86.5}
{"Compound String": "CC(C)Oc1ccc2ccccc2c1-c1cccc2cccnc12", "Comparison Operator": "=", "Assay Result": 144}
